Origin of measurements: patent US20110130374A1

System: D122 (lung-mouse) cells
ASSAY COMMENT: Transwell cell migration assay, D122
Assay type: cell-based
PROPERTY NAME: IC50 (µM)
# unit: µM | format: bare number

Q: Value lookup for IC50; key = Cc1cc(C)nc(NS(=O)(=O)c2ccc(NC(=O)/C(=C\c3cccs3)NC(=O)c3cccs3)cc2)n1 [Compound 1]
Result: 1.4
